Biological target: T7 DNA polymerase gp5 (wild-type, exo+);thioredoxin (accessory protein) (bacteriophage T7;Escherichia coli, UniProt P00581;P0AA25 1-704;2-109, |)
Sequence (P00581 whole entry, chain 1 of 2): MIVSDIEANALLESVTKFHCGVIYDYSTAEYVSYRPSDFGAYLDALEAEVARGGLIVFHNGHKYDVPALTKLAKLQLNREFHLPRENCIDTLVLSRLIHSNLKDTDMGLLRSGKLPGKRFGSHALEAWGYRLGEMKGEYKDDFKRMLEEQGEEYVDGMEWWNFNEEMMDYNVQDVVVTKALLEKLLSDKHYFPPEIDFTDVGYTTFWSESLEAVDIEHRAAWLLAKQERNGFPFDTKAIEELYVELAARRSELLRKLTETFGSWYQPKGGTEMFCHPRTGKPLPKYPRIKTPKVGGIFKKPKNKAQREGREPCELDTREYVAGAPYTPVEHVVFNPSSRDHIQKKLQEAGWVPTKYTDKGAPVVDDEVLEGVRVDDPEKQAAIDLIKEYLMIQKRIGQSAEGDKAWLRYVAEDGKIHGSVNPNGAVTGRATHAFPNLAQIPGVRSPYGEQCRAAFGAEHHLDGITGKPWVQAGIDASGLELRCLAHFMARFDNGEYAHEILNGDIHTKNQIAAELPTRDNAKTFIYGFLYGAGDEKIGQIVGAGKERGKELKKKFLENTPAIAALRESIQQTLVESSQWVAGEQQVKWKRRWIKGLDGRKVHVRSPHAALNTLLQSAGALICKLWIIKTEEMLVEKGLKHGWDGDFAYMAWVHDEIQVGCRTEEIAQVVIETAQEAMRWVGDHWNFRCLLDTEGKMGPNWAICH
Sequence (P0AA25 2-109, chain 2 of 2): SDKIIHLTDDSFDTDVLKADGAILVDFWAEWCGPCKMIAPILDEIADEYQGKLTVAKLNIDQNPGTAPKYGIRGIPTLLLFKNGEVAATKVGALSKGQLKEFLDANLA
Assay: equilibrium fluorescence titration (Trp-tCo FRET), quadratic fit; 12.5 mM Mg2+, 2 uM thioredoxin; net Kd over all sites; T7 reaction buffer (composition and pH not given in the material), 12.5 mM Mg2+; 20 C stated for rapid-quench
Conditions: protein: recombinant;recombinant; tags: ;; copies: 1;1; label: tCo; primer/template, 18 nt template 5' overhang, A:A mismatch buried by one terminal C:G pair
parameter: Kd

Query string: Tell me the measured Kd of tCo-27-PThio/45-BMM-PThio (dsDNA, primer: tCo at position 25, Sp phosphorothioate at the 3'-terminal linkage; template: phosphorothioate at the 3'-terminal linkage) DNA 1: CCGTCGCAGCCGTCCAACCAACTACAC DNA 2: GGACGGCATTGGATCGATGAGTAGTTGGTTGGACGGCTGCGACGG , please.
Result string: ~0.5 nM

# credit: paper PMC9800556
